# Test system: YSK1
# Construct: gene STK25
# RUN PARAMETERS: concentration: 1 μM, replicates: in singlicate; n = 1;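 further: KINOMEscan kinase panel screen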
METRIC NAME: %Inh

>>> endpoint_value("Nc1ncc(-c2ccc3nccc(-c4ccncc4)c3c2)cc1S(=O)(=O)N1CCCCC1 [GSK1693850]")
"13%"
>>> endpoint_value("Cc1ccc(O)cc1Nc1ccnc2ccc(C(C)(C)C)cc12 [GW856805]")
"1%"
>>> endpoint_value("Cn1cc(-c2ccc3c(c2)CCN3C(=O)Cc2cc(F)cc(F)c2F)c2c(N)ncnc21 [GSK2634140]")
"23%"
>>> endpoint_value("Fc1cc(Cl)ccc1Nc1ccnc2cc(-c3ccc(CN4CCOCC4)o3)ccc12 [GW560109]")
"0%"
>>> endpoint_value("Nc1ncc(-c2cn[nH]c2)c2scc(-c3ccc4c(c3)CCN4C(=O)Cc3ccccc3)c12 [GSK2593067]")
"6%"
>>> endpoint_value("Cc1ccc(NC(=O)c2cccc(N3CCCCC3)c2)cc1-c1ccc(C(=O)NCC2CC2)cc1 [GSK1917008]")
"12%"
>>> endpoint_value("O=C(Nc1c(F)cccc1F)c1cc(C(=O)c2ccccc2F)c[nH]1 [GSK1326180]")
"10%"
>>> endpoint_value("COc1cccc(C2=C(Nc3cccc(O)c3)C(=O)NC2=O)c1 [SB-390771]")
"16%"
>>> endpoint_value("Cc1ccc(C)c(NC(=O)Nc2ccc(C)c(-c3ccc(C(=O)Nc4ccncc4)cc3)c2)c1 [GSK1398473]")
"0%"

====

# Tested on: DDR1
# RUN PARAMETERS: concentration: 1 μM, replicates: in singlicate; n = 1
METRIC NAME: %Inh (%)

>>> endpoint_value("O=C(Nc1n[nH]c2nc(-c3ccccc3)ccc12)C1CC1")
3
>>> endpoint_value("O=C(O)C(F)(F)F.O=c1[nH]ccc2nc(N[C@@H]3CCNC3)nc(Nc3cc(Cl)cc(Cl)c3)c12")
0
>>> endpoint_value("COc1cccc2c(-c3ccncc3)c(-c3ccc(F)cc3)nn12")
96.2
>>> endpoint_value("Cc1nn2c(=O)cc(N3CCO[C@H](C)C3)nc2n1Cc1cccc(Cl)c1Cl")
18
>>> endpoint_value("Nc1cccc(-c2ccc3c(N)n[nH]c3c2)c1")
0
>>> endpoint_value("COC(=O)Nc1nc2cc(Oc3ccc(NC(=O)Nc4cccc(SC)c4)cc3)ccc2[nH]1.Cl")
100
>>> endpoint_value("N#CC1(c2cccc(C(=O)Nc3cccc(Oc4ccc5nc(NC(=O)C6CC6)sc5n4)c3)c2)CC1")
98.6
>>> endpoint_value("COc1cc(Nc2nccc(N3CCC(NS(=O)(=O)c4ccc(NC(C)=O)cc4)CC3)n2)cc(OC)c1OC")
0
>>> endpoint_value("Cc1cccc(Nc2nc(NCCN)ncc2C(N)=O)c1")
0
>>> endpoint_value("CN(c1ccc(NC(=O)Nc2cccc(Cl)c2)cc1)c1ccnc(N)n1.Cl")
97.7
>>> endpoint_value("CS(=O)(=O)c1cccc(CNc2nc(Nc3ccc4c(c3)CCC(=O)N4)ncc2C(F)(F)F)c1")
0
>>> endpoint_value("CC(C)(C)c1ccc(C(=O)Nc2cn3cc(-n4ccnc4)ccc3n2)cc1")
0
>>> endpoint_value("Cc1ccc(O)cc1Nc1ccnc2cc(-c3ccc(CN4CCCCC4)o3)ccc12")
98.1
>>> endpoint_value("CCn1cnc2c(NCc3ccccc3)ncnc21")
0
>>> endpoint_value("Cc1ccc(C)c(NC(=O)Nc2ccc(C)c(-c3ccc(C(=O)Nc4ccncc4)cc3)c2)c1")
99.8
>>> endpoint_value("Cl.N#CCc1ccc(Nc2nccc(Nc3ccc(Oc4ccccc4)cc3)n2)cc1")
32
>>> endpoint_value("CCNc1nccc(-c2c(-c3ccc(F)cc3)ncn2C2CCN(C)CC2)n1")
70
>>> endpoint_value("Cc1ccc(-c2ccc3occ(-c4ccc(S(C)=O)cc4)c3c2)nn1 (stereo not drawn)")
0

====

Each entry below carries its recorded %Inh.
# Test system: PRKCD
# RUN PARAMETERS: concentration: 1 μM, replicates: in singlicate; n = 1
METRIC NAME: %Inh (%)

>>> endpoint_value("CNc1nccc(-c2ccc3c(N)n[nH]c3c2)n1 [GSK2206003]")
27
>>> endpoint_value("Cc1ccc(NC(=O)c2ccnc(N3CCCCC3)c2)cc1-c1ccc(C(=O)NCC2CC2)cc1 [GW775610]")
9
>>> endpoint_value("COC(=O)Nc1nc2ccc(Oc3ccc(NC(=O)Nc4cc(C(F)(F)F)ccc4F)cc3)cc2[nH]1.Cl [GW654607]")
4
>>> endpoint_value("COc1ccc(C)c(Nc2ccnc(Nc3ccc(-c4cnc[nH]4)cc3)n2)c1.Cl [GW784041]")
30
>>> endpoint_value("c1ccc(Oc2ccc(Nc3ccnc4cc(-c5ccc(CN6CCCCC6)o5)ccc34)cc2)nc1 [GW567143]")
7
>>> endpoint_value("CCNc1nccc(-c2c(-c3ccc(F)cc3)ncn2C2CCN(C)CC2)n1")
6
>>> endpoint_value("CCNC(=O)/C=C/c1n[nH]c2cc(Sc3ccccc3C(=O)NC)ccc12")
6
>>> endpoint_value("Cl.N#CCc1ccc(Nc2nccc(Nc3ccc(Oc4ccccc4)cc3)n2)cc1 [GW639905]")
0
>>> endpoint_value("Nc1ncc(-c2ccc3nccc(-c4ccncc4)c3c2)cc1S(=O)(=O)N1CCCCC1 [GSK1693850]")
15
>>> endpoint_value("Cc1ccccc1CC(=O)N1CCc2cc(-c3cn(C)c4ncnc(N)c34)ccc21 [GSK2603346]")
0
>>> endpoint_value("COc1ccc(C2=C(Nc3cccc(O)c3)C(=O)NC2=O)cc1 [SB-390766]")
0
>>> endpoint_value("Cn1cc(-c2ccc3c(c2)CCN3C(=O)Cc2cc(F)cc(F)c2F)c2c(N)ncnc21 [GSK2634140]")
0
>>> endpoint_value("Cc1cccc(Nc2nc(NCCN)ncc2C(N)=O)c1 [GSK1292139]")
26
>>> endpoint_value("Cc1ccc(Nc2ccnc(Nc3ccc(C)c(F)c3)n2)cc1O.Cl [GW582868]")
0
>>> endpoint_value("Fc1cc(Cl)ccc1Nc1ccnc2cc(-c3ccc(CN4CCSCC4)o3)ccc12 [GW560106]")
14
>>> endpoint_value("Nc1ncnc2scc(-c3ccc(NC(=O)Cc4cc(F)ccc4F)cc3)c12.O=C(O)C(F)(F)F [SB-731254-M]")
27
>>> endpoint_value("COc1ccc(NC(=O)c2ccoc2)cc1-c1ccc(C(=O)NCC2CC2)cc1 [GW810437]")
9
>>> endpoint_value("CC(C)c1nc(-c2ccc(F)c(NS(=O)(=O)c3c(F)cccc3F)c2)c(-c2ccnc(Nc3ccc(N4CCOCC4)nc3)n2)s1 [GSK1804250]")
8
>>> endpoint_value("N#Cc1cnc2cc(-c3cnc(CNCCN4CCOCC4)s3)ccc2c1Nc1ccc(Oc2ccccc2)cc1 [GW664114]")
0
>>> endpoint_value("O=C(Nc1n[nH]c2nc(-c3ccccc3)ccc12)C1CC1 [SB-708999]")
0
>>> endpoint_value("COc1cc(Nc2ccnc3cc(-c4ccncc4)ccc23)cc(OC)c1OC.Cl [GW494610]")
13
>>> endpoint_value("CN(C)c1ncnc2nc[nH]c12 [SKF-31736]")
0
>>> endpoint_value("Cc1cccc(Nc2nc(N[C@H]3CCCC[C@H]3N)ncc2C(N)=O)c1.Cl [GSK986310]")
53
>>> endpoint_value("Cc1ccc(NC(=O)c2cccc(N3CCCCC3)c2)cc1-c1ccc(C(=O)NCC2CC2)cc1 [GSK1917008]")
10

====

# Test system: NEK1
# RUN PARAMETERS: concentration: 1 μM, replicates: in singlicate; n = 1
Recorded %Inh by entry
METRIC NAME: %Inh

>>> endpoint_value("CN(c1ccc(F)c(NC(=O)c2cccc(OC(C)(C)C#N)c2Cl)c1)c1ccc2nc(NC(=O)C3CC3)sc2n1")
"3%"
>>> endpoint_value("CCNC(=O)/C=C/c1n[nH]c2cc(Sc3ccccc3C(=O)NC)ccc12")
"0%"
>>> endpoint_value("Nc1ncnc2scc(-c3ccc(NC(=O)Cc4cc(F)ccc4F)cc3)c12.O=C(O)C(F)(F)F")
"20%"
>>> endpoint_value("COc1ccc(C)c(Nc2ccnc(Nc3ccc(-c4cnc[nH]4)cc3)n2)c1.Cl")
"0%"

====

# Tested on: ASK1
# Construct: gene MAP3K5
# RUN PARAMETERS: concentration: 1 μM, replicates: in singlicate; n = 1
Some compounds, each annotated with its measured %Inh.
METRIC NAME: %Inh (%)

>>> endpoint_value("Cc1cccc(Nc2nc(NCCN)ncc2C(N)=O)c1")
0
>>> endpoint_value("CC(C)c1nc(-c2cccc(NS(=O)(=O)c3c(F)cccc3F)c2)c(-c2ccnc(Nc3ccc(N4CCOCC4)nc3)n2)s1.Cl")
0
>>> endpoint_value("N#CC1(c2cccc(C(=O)Nc3cccc(Oc4ccc5nc(NC(=O)C6CC6)sc5n4)c3)c2)CC1")
0
>>> endpoint_value("Cc1nn2c(=O)cc(N3CCO[C@H](C)C3)nc2n1Cc1cccc(Cl)c1Cl")
8

The reported numbers originate from paper PMC5540273.
